PAMPA overview
Number in ×10⁻⁶ cm/s, nothing else.

Molecule	PAMPA / ×10⁻⁶ cm/s
O=c1c2cc(F)ccc2n2cnnc2n1CCc1ccccc1	924
C[C@H]1C[C@@H]1n1c(=O)c2cc(F)ccc2n2c(=S)[nH]nc12	188
O=C(NCCCn1c(=O)c2cc(F)ccc2n2c(=S)[nH]nc12)c1ccccc1	267

Entry O=c1c2cc(Cl)ccc2n2c(=S)[nH]nc2n1CCC(F)(F)F , PAMPA reported as 257

Entry O=c1c2cc(F)ccc2n2c(=S)[nH]nc2n1Cc1ccccc1 , PAMPA reported as 841

Entry O=c1c2cc(F)ccc2n2c(=S)[nH]nc2n1CCC1CCC(F)(F)CC1 , PAMPA reported as 201

Entry O=c1c2cc(F)ccc2n2c(=S)[nH]nc2n1CCN1CCOCC1 , PAMPA reported as 67.0

----------
# Run description: Aqueous solubility
# Experimental context: aqueous solubility
Endpoint name: Solub. (µg/mL)
Number in µg/mL, nothing else.

Smiles data	Endpoint name	Unit spec	Numeric value
CC(C)(C)OC(=O)Nc1ccc(CC(=O)NCCCn2c(=O)c3cc(F)ccc3n3c(=S)[nH]nc23)cc1	Solub.	µg/mL	17.4

Moving on to another molecule below.
Entry CNC(=S)N1CN(CCc2ccccc2)C(=O)c2cc(F)ccc21 , Solub. reported as 4.5

----------
# Run description: Stability in rat liver microsomes (Table 10)
# Type: in vitro ADME
# Experimental context: read-out: t1/2 Rat LM
half-life overview
Number in min, nothing else.

CCCn1c(=O)c2cc(F)ccc2n2c(SC)nnc12 26.4
CCCn1c(=O)c2ccccc2n2c(SC)nnc12 9.41

Moving on to another compound below.
Entry CCCn1c(=O)c2cc(F)ccc2n2c(=S)[nH]nc12 , half-life reported as 120

----------
# Run description: in vitro
# Experimental context: PAMPA
Endpoint name: Papp
Answer shape: numeric part, then the unit.

Entry Cc1noc(C)c1C=CC(=O)NCCCn1c(=O)c2cc(F)ccc2n2c(=S)[nH]nc12 , Papp reported as 27.6 ×10⁻⁶ cm/s

----------
t1/2 (min, RLM) overview
# Run description: Microsomal metabolic stability, rat liver microsomes (RLM)
# Experimental context: rat liver microsomes

In the examples that follow, each entry is paired with its recorded t1/2 (min, RLM).
Compound	Result
CC(=O)NCCn1c(=O)c2cc(F)ccc2n2c(=S)[nH]nc12	>30 min
O=C(CN1CCOCC1)NCCCn1c(=O)c2cc(F)ccc2n2c(=S)[nH]nc12	>30 min
CCn1c(=O)c2cc(F)ccc2n2c(=S)[nH]nc12	>30 min
COc1ccccc1CC(=O)NCCCn1c(=O)c2cc(F)ccc2n2c(=S)[nH]nc12	16.1 min
NCCOCCOCCOCCC(=O)NCCCn1c(=O)c2cc(F)ccc2n2c(=S)[nH]nc12	>30 min

Entry O=c1c2cc(F)ccc2n2c(=S)[nH]nc2n1CCC1CCC(F)(F)CC1 , t1/2 (min, RLM) reported as >30 min

Entry CCCn1c(=O)c2cc(F)ccc2n2c(=S)[nH]nc12 , t1/2 (min, RLM) reported as >30 min

Entry NS(=O)(=O)CCCC(=O)NCCCn1c(=O)c2cc(F)ccc2n2c(=S)[nH]nc12 , t1/2 (min, RLM) reported as >30 min

Entry O=C(Cc1cccc(F)c1)NCCCn1c(=O)c2cc(F)ccc2n2c(=S)[nH]nc12 , t1/2 (min, RLM) reported as 26.5 min

----------
Solub. overview
# Run description: Aqueous solubility
# Experimental context: aqueous solubility
Number in µg/mL, nothing else.

Compound	Unit spec	Solub.
O=c1c2cc(F)ccc2n2c(=S)[nH]nc2n1CCc1ccc(Cl)cc1 [compound 82]	µg/mL	1.2
O=c1c2cc(F)ccc2n2c(=S)[nH]nc2n1CCN1CCCCC1 [compound 88]	µg/mL	2.4
C[C@H]1C[C@@H]1n1c(=O)c2cc(F)ccc2n2c(=S)[nH]nc12 [compound 80]	µg/mL	13.2
CCCCCn1c(=O)c2ccccc2n2c(=S)[nH]nc12 [compound 24]	µg/mL	4.2
COCCCn1c(=O)c2ccccc2n2c(=S)[nH]nc12 [compound 28]	µg/mL	31.2

Entry O=C(Cc1cccnc1)NCCCn1c(=O)c2cc(F)ccc2n2c(=S)[nH]nc12 [compound 137] , Solub. reported as 31.8

Entry CCCn1c(=O)c2ccccc2n2c(=S)n(CN(CC)CC(C)C)nc12 [compound 38] , Solub. reported as 8.7

Entry CC(C)CNC(=O)CCn1c(=O)c2ccccc2n2c(=S)[nH]nc12 [compound 32] , Solub. reported as 30.8

Entry CC(C)n1c(=O)c2ccccc2n2c(=S)[nH]nc12 [compound 26] , Solub. reported as 19.5

Entry C=CCn1c(=O)c2ccccc2n2c(=S)[nH]nc12 [compound 22] , Solub. reported as 19.4

Entry CCCCn1c(=O)c2ccccc2n2c(=S)[nH]nc12 [compound 23] , Solub. reported as 8.5

Entry CN1CCCC1CCn1c(=O)c2cc(F)ccc2n2c(=S)[nH]nc12 (stereo not shown) [compound 87] , Solub. reported as 17.8

Entry NS(=O)(=O)CCCC(=O)NCCCn1c(=O)c2cc(F)ccc2n2c(=S)[nH]nc12 [compound 107] , Solub. reported as 42.4

----------
# Run description: Microsomal metabolic stability, rat liver microsomes (RLM)
# Experimental context: rat liver microsomes
Endpoint name: t1/2 (min, RLM)

In the examples that follow, each entry is paired with its recorded t1/2 (min, RLM).
CN1CCN(CC(=O)NCCCn2c(=O)c3cc(F)ccc3n3c(=S)[nH]nc23)CC1 >30 min
N#Cc1ccccc1CC(=O)NCCCn1c(=O)c2cc(F)ccc2n2c(=S)[nH]nc12 >30 min
O=c1c2cc(Cl)ccc2n2c(=S)[nH]nc2n1CCC(F)(F)F >30 min
CN(C)CCn1c(=O)c2cc(F)ccc2n2c(=S)[nH]nc12 >30 min
O=c1c2cc(F)ccc2n2c(=S)[nH]nc2n1CC1CC1 >30 min
Nc1nnc2n(CCc3ccccc3)c(=O)c3cc(F)ccc3n12 29.4 min
O=C(O)CCC(=O)NCCCn1c(=O)c2cc(F)ccc2n2c(=S)[nH]nc12 >30 min
Cc1nnc2n(CCc3ccccc3)c(=O)c3cc(F)ccc3n12 10.7 min
O=C(Cc1ccccc1)NCCCn1c(=O)c2cc(F)ccc2n2c(=S)[nH]nc12 18.7 min
O=c1c2cc(F)ccc2n2cnnc2n1CCc1ccccc1 11.8 min

Moving on to another compound below.
Entry O=c1c2cc(F)ccc2n2c(=S)[nH]nc2n1CCc1ccccn1 , t1/2 (min, RLM) reported as >30 min

----------
# Run description: Aqueous solubility
# Experimental context: aqueous solubility
Solub. overview

In the examples that follow, each entry is paired with its recorded Solub..
CCCn1c(=O)c2cc(F)ccc2n2c(=S)[nH]nc12 >28 µg/mL
CN1CCN(CC(=O)NCCCn2c(=O)c3cc(F)ccc3n3c(=S)[nH]nc23)CC1 >64 µg/mL

Moving on to another compound below.
Entry CS(=O)(=O)NCCn1c(=O)c2cc(F)ccc2n2c(=S)[nH]nc12 , Solub. reported as >53 µg/mL

----------
# Run description: Microsomal metabolic stability, rat liver microsomes (RLM)
# Experimental context: rat liver microsomes
Endpoint name: t1/2 (min, RLM)

CS(=O)(=O)NCCCn1c(=O)c2cc(F)ccc2n2c(=S)[nH]nc12 >30 min
O=c1c2cc(F)ccc2n2c(=S)[nH]nc2n1CCc1ccncc1 >30 min
CCn1c(=O)c2ccccc2n2c(=S)[nH]nc12 >30 min

Moving on to another molecule below.
Entry CS(=O)(=O)NCCn1c(=O)c2cc(F)ccc2n2c(=S)[nH]nc12 , t1/2 (min, RLM) reported as >30 min

----------
# Run description: Aqueous solubility
# Experimental context: aqueous solubility
# binarize Solub.: threshold 20 µg/mL inclusive, high side label 1, low side label 0

Molecule	Assigned label
O=c1c2cc(F)ccc2n2c(=S)[nH]nc2n1CCCO [compound 66]	label 1
O=C(Cc1cccc(C(F)(F)F)c1)NCCCn1c(=O)c2cc(F)ccc2n2c(=S)[nH]nc12 [compound 132]	label 1
CN(C)CCn1c(=O)c2cc(F)ccc2n2c(=S)[nH]nc12 [compound 70]	label 1
O=C(Cc1cccc(Cl)c1)NCCCn1c(=O)c2cc(F)ccc2n2c(=S)[nH]nc12 [compound 124]	label 1

input: Please indicate if the recorded Solub. for O=C(CC1CCNCC1)NCCCn1c(=O)c2cc(F)ccc2n2c(=S)[nH]nc12 [compound 116] meets or exceeds 20 µg/mL.
output: label 1

input: Please indicate if the recorded Solub. for N#Cc1ccccc1CC(=O)NCCCn1c(=O)c2cc(F)ccc2n2c(=S)[nH]nc12 [compound 133] meets or exceeds 20 µg/mL.
output: label 1

input: Please indicate if the recorded Solub. for O=c1c2ccccc2n2c(=S)[nH]nc2n1CCC(F)(F)F [compound 27] meets or exceeds 20 µg/mL.
output: label 1

input: Please indicate if the recorded Solub. for O=c1c2cc(F)ccc2n2c(=S)[nH]nc2n1CCc1ccccc1Cl [compound 81] meets or exceeds 20 µg/mL.
output: label 0

input: Please indicate if the recorded Solub. for O=c1c2cc(F)ccc2n2cnnc2n1CCc1ccccc1 [compound 18] meets or exceeds 20 µg/mL.
output: label 0

input: Please indicate if the recorded Solub. for O=c1c2cc(F)ccc2n2c(=S)[nH]nc2n1CCC(F)(F)F [compound 65] meets or exceeds 20 µg/mL.
output: label 0

input: Please indicate if the recorded Solub. for O=C(CN1CCOCC1)NCCCn1c(=O)c2cc(F)ccc2n2c(=S)[nH]nc12 [compound 118] meets or exceeds 20 µg/mL.
output: label 1
